# Organism: Rattus norvegicus
# ASSAY SUMMARY: Open TG-GATES - Regimen: Daily Repeat
# Type: toxicity, organism-based, Sprague-Dawley
# Set-up: regimen Daily Repeat, gender Male, age 6 weeks
# CONDITION: in vivo, po, 100 mg/kg, […], tissue Liver, route gavage, dose level Low, time 14 day
Measured LIVER accompanies every entry in the list below.
Numbers only; they are read as g.

Would you please look over these solved cases?
CC(S)C(=O)NCC(=O)O (centres undefined) [TIOPRONIN] ... 14.1
CC(=O)[C@@]1(O)CC[C@H]2[C@@H]3C=C(Cl)C4=CC(=O)CC[C@]4(C)[C@H]3CC[C@@]21C [CHLORMADINONE] ... 12
CCCCNC(=O)NS(=O)(=O)c1ccc(C)cc1 [TOLBUTAMIDE] ... 13.1

We next turn to a different molecule, shown below.
Challenge: Query: LIVER; subject: O=C(O)c1ccccc1Nc1ccccc1 [FENAMIC ACID]
Response given: 14.7

These data points were gathered from ChEMBL document CHEMBL3885861.
